Values compiled from ChEMBL document CHEMBL1137346.

- tested_system: UniProt P43166
- Sequence (P43166 whole entry): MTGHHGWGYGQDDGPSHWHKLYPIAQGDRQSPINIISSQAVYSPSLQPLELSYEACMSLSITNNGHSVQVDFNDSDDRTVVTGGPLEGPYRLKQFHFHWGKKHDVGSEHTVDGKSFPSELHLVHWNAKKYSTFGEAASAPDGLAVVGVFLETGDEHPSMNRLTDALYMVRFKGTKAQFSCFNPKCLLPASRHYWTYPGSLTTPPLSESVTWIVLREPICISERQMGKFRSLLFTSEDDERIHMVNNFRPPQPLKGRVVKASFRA
measured_metric: Ki (nM)
Output spec: scalar in nM, unitless text.

Query block: For CC1(C)O[C@@H]2[C@@H](CO[C@@]3(CNS(N)(=O)=O)OC(C)(C)O[C@@H]23)O1 , write its Ki.
Result block: 35
